targetDesc: human CB1 receptor (Homo sapiens, UniProt P21554)
Construct: gene CNR1; recombinant receptor in CHO-K1 AequoScreen cells (aequorin luminescence line, Revvity ES-110-AF)
Sequence (P21554 whole entry): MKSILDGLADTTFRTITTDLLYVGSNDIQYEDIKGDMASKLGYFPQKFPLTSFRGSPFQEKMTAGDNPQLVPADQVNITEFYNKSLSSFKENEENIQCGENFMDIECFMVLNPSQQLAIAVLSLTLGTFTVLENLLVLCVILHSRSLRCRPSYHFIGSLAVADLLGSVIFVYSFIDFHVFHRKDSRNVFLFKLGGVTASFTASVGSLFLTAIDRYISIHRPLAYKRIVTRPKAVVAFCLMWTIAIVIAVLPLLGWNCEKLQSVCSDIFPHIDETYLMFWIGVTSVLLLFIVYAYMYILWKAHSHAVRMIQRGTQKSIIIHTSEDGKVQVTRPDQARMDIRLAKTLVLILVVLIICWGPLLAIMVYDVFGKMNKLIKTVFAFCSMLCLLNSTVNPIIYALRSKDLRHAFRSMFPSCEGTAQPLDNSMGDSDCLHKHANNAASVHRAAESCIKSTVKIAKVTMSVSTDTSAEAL
runDescription: aequorin luminescence agonist assay, CHO-K1 cells
Assay type: cell-based
conditionDetails: read-out: EC50 (95% CI)
pEC50: −log10 of the molar value.
Decision: pEC50 compared against 7; not below it gives y, below it gives n.

Please review the entries below; each comes with its answer.
compound: CCCCCc1cc(OC(C)=O)c2c(c1)OC(C)(C)[C@@H]1CC[C@@H](C)C[C@@H]21 [(9R)-HHC-O]
targetDesc: human CB1 receptor (Homo sapiens, UniProt P21554)
classLabel: n
--
compound: CCCCCc1cc(O)c2c(c1)OC(C)(C)[C@@H]1CC[C@H](C)C[C@@H]21 [(9S)-HHC]
targetDesc: human CB1 receptor (Homo sapiens, UniProt P21554)
classLabel: n
--
compound: CCCCCn1cc(C(=O)c2cccc3ccccc23)c2ccccc21 [JWH-018, reference compound]
targetDesc: human CB1 receptor (Homo sapiens, UniProt P21554)
classLabel: y

**Query** Assess whether reported pEC50 for CCCCCCCc1cc(O)c2c(c1)OC(C)(C)[C@@H]1CC[C@@H](C)C[C@@H]21 [(9R)-HHC-P] sits at 7 or higher.
**Result** y
